# Substrate: CC(=O)CC(=O)SCCNC(=O)CCNC(=O)[C@H](O)C(C)(C)COP(=O)(O)OP(=O)(O)OC[C@H]1O[C@@H](n2cnc3c(N)ncnc32)[C@H](O)[C@@H]1OP(=O)(O)O
# testDetails: purified protein
# Assay type: biochemical, Caenorhabditis elegans
# testConditions: 100 µM NADH (saturating), 0.1 M citrate/phosphate pH 7.0, 0.1 mM dithiothreitol, 298 K, 23 nM protein, AACoA 30-70 µM, 25.0 °C
quantity: kcat/Km (M⁻¹ s⁻¹)
# unit: M⁻¹ s⁻¹ | format: bare number

Exam item: Note down kcat/Km recorded for 3-hydroxyacyl-CoA dehydrogenase from C. elegans, wild type (enzyme, Caenorhabditis elegans, 3-hydroxyacyl-CoA dehydrogenase (cHAD), Caenorhabditis elegans, WormBase WBGene00010035, GenBank CAA80153.1; N-terminal domain 9-194, loop 195-201 and C-terminal domain 202-297 described in the structure; vector pEXS-CG (derived from pET-22b(+)); also called cHAD; wild type cHAD; not shown: GST, C-terminal, cleaved) MFTAKCAMQNIRNVAIVGSGQMGSGIAQVTASSGFNVMLADVNKKALDRAMKAISQSVTHLSKKQKGTDKEKSDFVTLTMSRIKTCNNVSTAVADADLIIEAAIENIDLKRGIFAQIEQSCKKDSILTTNTSSFLLEDVAKGLQDKTRFGGLHFFNPVPVMKLLEVIRSDDTSDETYATLIKFGTAVGKTTVACKDSPGFIVNRLLIPYFFEAARMYERGDASMTDIDEAMKLGAGHPMGPFELADYIGLDTVKFVMDGWAAKYPEVQLFEASPLVDKLVAEGKLGRKTGDGFYSYKK
Marked response: 600000
